Please respond with reported MIC for every item in the list.
- System: Aspergillus fumigatus T33439 (ATCC MYA-3626)
- Experiment: Fungal MIC Protocol, Aspergillus fumigatus
- Type: cell-based
- Run conditions: Aspergillus fumigatus, 48 h, read-out: MIC Aspergillus fumigatus 3626
- Protocol: Fungal MIC Protocol: RPMI/MOPS media (Roswell Park Memorial Institute/3-morpholinopropane-1-sulfonic acid media) is prepared by dissolving 8.4 grams RPMI […] (Sigma cat #R1383), 34.52 grams MOPS buffer (Sigma cat #M3.183) and 2 […] glucose in 900 mL deionized water. The pH is adjusted to 7.0 with NaOH and filter sterilized. […] The supernatant is removed and the OD530 of a 1:100 dilution is measured. […]
Where a name gives a salt, the structure may show the parent alone.
Answers are plain numbers, in µg/mL.

The examples below pair each entry with its known result.
INSERT INTO measurements (molecule, measure_name, units_text, endpoint_value) VALUES
  ('Cn1c(-c2ccc(C3=CCC(C(=N)N)CC3)cc2F)nnc1-c1ccc(C2=CCC(C(=N)N)CC2)cc1F (centres unmarked) [Example 87, trifluoroacetate]', 'MIC', 'µg/mL', 0.2),
  ('N=C(N)N1CC=C(c2ccc(-c3nnc(-c4ccc(C5=CCN(C(=N)N)CC5)cc4F)n3CC(F)(F)F)c(F)c2)CC1 [Example 84, hydrochloride]', 'MIC', 'µg/mL', 0.2),
  ('N=C(N)N1CC=C(c2ccc(-c3nnc(-c4ccc(C5=CCN(C(=N)N)CC5)cc4F)n3CCOCCO)c(F)c2)CC1 [Example 77, trifluoroacetate]', 'MIC', 'µg/mL', 0.2),
  ('CC(CO)n1c(-c2ccc(C3=CCN(C(=N)N)CC3)cc2F)nnc1-c1ccc(C2=CCN(C(=N)N)CC2)cc1F (centres unmarked) [Example 83, hydrochloride]', 'MIC', 'µg/mL', 0.39),
  ('CC(O)Cn1c(-c2ccc(C3=CCN(C(=N)N)CC3)cc2F)nnc1-c1ccc(C2=CCN(C(=N)N)CC2)cc1F (centres unmarked) [Example 66, trifluoroacetate]', 'MIC', 'µg/mL', 0.2);

Please supply MIC for each of the following items, keeping them in order.
1. N=C(N)N1CC=C(c2ccc(-c3nnc(-c4ccc(C5=CCN(C(=N)N)CC5)c(C(F)(F)F)c4)n3CCO)cc2C(F)(F)F)CC1 [Example 80, hydrochloride]
2. COCCn1c(-c2ccc(C3=CCN(C(=N)N)CC3)cc2F)nnc1-c1ccc(C2=CCN(C(=N)N)CC2)cc1F [Example 68, trifluoroacetate]
3. N=C(N)N1CC=C(c2ccc(-c3nnc(-c4ccc(C5=CCN(C(=N)N)CC5)cc4)n3C3CCCC3)cc2)CC1 [Example 69, trifluoroacetate]

25
0.1
0.1
